Target: Nuclear receptor subfamily 1 group I member 3 (Homo sapiens)
Experiment: qHTS assay to identify small molecule agonists of the constitutive androstane receptor (CAR) signaling pathway (AID 1224839); further: nearly all actives have a fitted effect of over 15% in size;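 on activation: HepG2 cells stably carrying human CAR and a CYP2B6 luciferase reporter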
Details: HepG2 hCAR CYP2B6-luciferase, agonist mode, 24 h; series mostly up to 42.5 µM
Inconclusive results are not listed. Active and inactive are the calls of the source. The call rests on the fitted dose curve; in most records, active means well fitted activation curve with a large enough effect in the repeat runs; inconclusive means weak or mixed curves; inactive means no such curve, though single readings can be large or run the other way.
Outcome codes: active, inactive

compound-string	target-entity	cat
CN(C)c1ccc(C(c2ccccc2)c2ccc(N(C)C)cc2)cc1	Nuclear receptor subfamily 1 group I member 3 (Homo sapiens)	inactive
COc1ccc(C(=O)Nc2nc3ccccc3c(NCc3ccccc3)c2C#N)cc1	Nuclear receptor subfamily 1 group I member 3 (Homo sapiens)	active
Nc1ccc([N+](=O)[O-])c(C(F)(F)F)c1	Nuclear receptor subfamily 1 group I member 3 (Homo sapiens)	inactive
c1cc(CCCc2ccncc2)ccn1	Nuclear receptor subfamily 1 group I member 3 (Homo sapiens)	inactive
O=C1CCCCCCCCCCCC(=O)OCCO1	Nuclear receptor subfamily 1 group I member 3 (Homo sapiens)	inactive
CC(=O)c1ccc2c(c1)N(CCCN1CCC(CCO)CC1)c1ccccc1S2	Nuclear receptor subfamily 1 group I member 3 (Homo sapiens)	inactive
CC(=O)c1ccc2c(c1)N(CCCN(C)C)c1ccccc1S2	Nuclear receptor subfamily 1 group I member 3 (Homo sapiens)	inactive
CCO[C@H](Cc1ccc(OCCc2ccc(OS(C)(=O)=O)cc2)cc1)C(=O)O	Nuclear receptor subfamily 1 group I member 3 (Homo sapiens)	inactive
CCCCCCCCCCCCN1CCCCCC1=O	Nuclear receptor subfamily 1 group I member 3 (Homo sapiens)	active
CCCCOC(=O)CCCCCCCC(=O)OCCCC	Nuclear receptor subfamily 1 group I member 3 (Homo sapiens)	inactive
CCOC(=O)Cc1cccc2ccccc12	Nuclear receptor subfamily 1 group I member 3 (Homo sapiens)	active
Cc1oc2c(NC(=O)c3c(Cl)cccc3Cl)cccc2c1C(C)(C)O	Nuclear receptor subfamily 1 group I member 3 (Homo sapiens)	inactive
